System: Bacillus subtilis
test: cleaved RNA product abundance (RNA/gDNA barcode ratio) relative to median wild-type variant (ratio to wild type); higher = more accumulation of the downstream cleavage product
protocol conditions: experiment (reporter, strain, medium): exp 4a: truncated aprE reporter, strain BJT201 with 2% xylose (RNase J1 expressed); cleavage site: cggR-gapA (positions -7 to +36 mutated)
quantity kind: cleaved RNA product abundance

[[record]]
sequence_data = "ACAGACGAAGGAGCCGCAAAGAAGTTATTAAAGGATGAGTAATCCCTCAATATAAATATCTCTCACTTATTTAAA"
target = "Bacillus subtilis"
result = 0.202

[[record]]
sequence_data = "ACAGACGAAGGAGCCGCAAAGAAGTTATGAAGGCATGAATAATCCCTCAATATAAATATCTCTCACTTATTTAAA"
target = "Bacillus subtilis"
result = 0.116

[[record]]
sequence_data = "ACAGACGAAGGAGCCGCAAAGAAGTTATTAAGGGATGAATAATCCCTCAATGTAAATATCTCTCACTTATTTAAA"
target = "Bacillus subtilis"
result = 0.13

[[record]]
sequence_data = "ACAGACGAAGGAGCCGCAAAGAAGTTATTAAGGGAAGAATAATCCCTCAATATAAATAACTCTCACTTATTTAAA"
target = "Bacillus subtilis"
result = 0.434

[[record]]
sequence_data = "ACAGACGAAGGAGCCGCAAAAAAGTTATTAAGGGATGACTAATCCCTCAATATAAATATCTCTCACTTATTTAAA"
target = "Bacillus subtilis"
result = 0.61

[[record]]
sequence_data = "ACAGACGAAGGAGCCGCAAAGAAGTTATTAAGGGATGAATAATCCGTCAATAAAAATATCTCTCACTTATTTAAA"
target = "Bacillus subtilis"
result = 0.173

[[record]]
sequence_data = "ACAGACGAAGGAGCCGCAAAGAATTTATTAAGGGATGAATAATCCCTCTATATAAATATCTCTCACTTATTTAAA"
target = "Bacillus subtilis"
result = 0.543

[[record]]
sequence_data = "ACAGACGAAGGAGCCGCAAATAAGTTATTAAGGGATGAATAATCCCTCAATATAAATATATCTCACTTATTTAAA"
target = "Bacillus subtilis"
result = 0.814

[[record]]
sequence_data = "ACAGACGAAGGAGCCGCAAAAAAGTTATTAAGGGATGAATAATCCCTCAATATAAAAATCTCTCACTTATTTAAA"
target = "Bacillus subtilis"
result = 0.82

[[record]]
sequence_data = "ACAGACGAAGGAGCCGCAACGAAGTTATTAATGGATGAATAATCCCTCAATATAAATATCTCTCACTTATTTAAA"
target = "Bacillus subtilis"
result = 0.141

[[record]]
sequence_data = "ACAGACGAAGGAGCCGCAAAGAAGTTACTAAGGGATGAATAATCGCTCAATATAAATATCTCTCACTTATTTAAA"
target = "Bacillus subtilis"
result = 0.0864

[[record]]
sequence_data = "ACAGACGAAGGAGCCGCAAAGAATCTATTAAGGGATGAATAATCCCTCAATATAAATATCTCTCACTTATTTAAA"
target = "Bacillus subtilis"
result = 0.689

[[record]]
sequence_data = "ACAGACGAAGGAGCCGCAAAGAAGTTATTAAGGGATTAATAATCCCTCAATATCAATATCTCTCACTTATTTAAA"
target = "Bacillus subtilis"
result = 0.0629

[[record]]
sequence_data = "ACAGACGAAGGAGCCGCAAAGAAGTTATTAAGAAATGAATAATCCCTCAATATAAATATCTCTCACTTATTTAAA"
target = "Bacillus subtilis"
result = 0.1

[[record]]
sequence_data = "ACAGACGAAGGAGCCGCATAGAAGTTATTAAGGGATGAATAATCACTCAATATAAATATCTCTCACTTATTTAAA"
target = "Bacillus subtilis"
result = 0.166


Where do the numbers come from? From the supplement of paper PMC11780869.
